- experimental_target: Calcium-dependent protein kinase 4 (Plasmodium falciparum (isolate 3D7)) (UniProt Q8IBS5)
- Sequence (Q8IBS5 whole entry, looked up): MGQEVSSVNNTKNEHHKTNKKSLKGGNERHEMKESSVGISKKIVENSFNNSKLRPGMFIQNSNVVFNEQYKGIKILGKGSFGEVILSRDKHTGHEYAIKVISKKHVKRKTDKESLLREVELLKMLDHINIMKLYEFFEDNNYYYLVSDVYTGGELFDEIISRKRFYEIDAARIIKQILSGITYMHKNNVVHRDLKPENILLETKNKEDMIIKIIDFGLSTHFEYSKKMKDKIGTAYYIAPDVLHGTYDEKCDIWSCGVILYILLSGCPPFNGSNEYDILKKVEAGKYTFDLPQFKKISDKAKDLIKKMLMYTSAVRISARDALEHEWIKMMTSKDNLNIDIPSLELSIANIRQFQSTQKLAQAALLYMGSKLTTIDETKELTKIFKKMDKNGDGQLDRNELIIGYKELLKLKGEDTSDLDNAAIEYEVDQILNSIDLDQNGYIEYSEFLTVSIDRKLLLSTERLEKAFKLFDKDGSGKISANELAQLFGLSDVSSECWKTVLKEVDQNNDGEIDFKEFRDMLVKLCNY
- test: PfCDPK4 kinase inhibitors, biochemical, TCAMS library (AID 1159588)
- test_parameters: recombinant PfCDPK4, Kinase-Glo ATP depletion luminescence
Measured potencies and affinities stand elsewhere. Active and inactive are the calls of the source. No cut-off is given here; in the data, nearly all actives have IC50 up to about 0.91 µM.
endpoint: outcome

Example compounds with recorded outcome:
- compound: "O=C(Nc1ccc([N+](=O)[O-])cc1Cl)c1cc(Br)cc(Cc2ccccc2)c1O"
  result: "inactive"
- compound: "NC1=NC(CCc2ccccc2)N(c2ccccc2)C(N)=N1 (stereo not given)"
  result: "inactive"
- compound: "Cc1onc(-c2ccccc2)c1-c1nc(NCCC(c2ccccc2)c2ccccc2)no1"
  result: "inactive"
- compound: "COc1ccc2ccc(F)c(CC(=O)N3CCOC(CNCc4cccc(-c5ccsc5)n4)C3)c2n1 (stereo not given)"
  result: "inactive"
- compound: "CC[C@H](C)CNC(=O)c1ccnc(-c2cccc(CN3CCC(N4CCCC4)CC3)c2)c1"
  result: "inactive"

Record CCOc1ccc(C2CCN(CCCCNC(=O)c3ccc(NC(=O)c4ccc(Cl)cc4)cc3)CC2)c(CC)c1 : what is its outcome with Calcium-dependent protein kinase 4 (Plasmodium falciparum (isolate 3D7)) (UniProt Q8IBS5)?
inactive

----------
- test: inhibition of 3D7 malaria parasite growth – strain 3D7 (AID 2306);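 note: 0% = DMSO wells and 100% = chloroquine plus artemisinin control wells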
- test_parameters: P. falciparum 3D7 erythrocytic growth, LDH absorbance, 72 h; at 2 µM; hits give high values
endpoint: growth inhibition (%)
The reply should contain only the number, in %.

Example compounds with recorded growth inhibition:
- compound: "COc1cc2ncnc(Nc3ccc(OCc4ccccc4)c(OCc4ccccc4)c3)c2cc1OC"
  unit_symbol: "%"
  growth inhibition: 100
- compound: "COc1ccc2nc(C)cc(Nc3ccc(Cl)c(Cl)c3)c2c1"
  unit_symbol: "%"
  growth inhibition: 100
- compound: "Cc1noc(-c2ccc3c(c2)CCN(CCC2CCC(NC(=O)/C=C/c4cccc(Cl)c4)CC2)CC3)n1 (centres undefined)"
  unit_symbol: "%"
  growth inhibition: 86

Reported growth inhibition, compound CC(C)NCc1cc(Nc2ccnc3cc(Cl)ccc23)ccc1O : ____
102

Reported growth inhibition, compound C[C@@H]1CN(c2cnn(Cc3cccc(NC(=O)Nc4ccc(-c5ccccc5)cc4)c3)c(=O)c2Cl)C[C@H](C)N1 : ____
101

Reported growth inhibition, compound Cc1cc(OCCCN2CCC(NS(=O)(=O)c3ccc(Cl)c(Cl)c3)C2)c2ccccc2n1 (centres undefined) : ____
87

Reported growth inhibition, compound Cn1ccc2c3c(N)nc(N)nc3ccc21 : ____
91

Reported growth inhibition, compound Cc1cc(NCCC(=O)Nc2ccccc2)nc(NCCOc2ccccc2)n1 : ____
100

Reported growth inhibition, compound CCOC(=O)c1[nH]c2ccc(F)cc2c1NC(=O)CN1CCN(c2cccc(C(F)(F)F)c2)CC1 : ____
96

Reported growth inhibition, compound CC(=O)C1=NN(c2ccc(C)cc2)C(c2cccs2)N1c1ccccc1 (centres undefined) : ____
89

----------
- test: human hepatoma cell viability loss – ATP luminescence, cytotoxicity control for P. falciparum antimalarial project, primary screen (AID 2303);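 note: 0% = DMSO wells and 100% = digitonin-killed cells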
- test_parameters: HepG2 viability, 24-48 h, at 10 µM
Activity calls are given as the source filed them.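 How the source made its calls: active means inhibition above 50%; inactive means the rest.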
Hi! Could you answer with just one of these? active, inactive

Before answering, review these 2 worked examples.
- compound: "CCCCCN1CCCC(CNS(=O)(=O)c2ccc(C(=O)Nc3ccc(C(F)(F)F)cc3)cc2)C1 (stereo not given)"
  label: "active"
- compound: "COc1ccc(-c2ccc(NC(=O)c3ccc(C#N)cc3)cc2)cc1CN1CCN(C)CC1"
  label: "inactive"

Field: outcome | Entry: O=c1[nH]c2ccc3[nH]cccc3c2c1C=Nc1ccc(N2CCN(CCO)CC2)cc1
inactive

Field: outcome | Entry: COc1ccc(NC(=O)/C=C/c2ccc(Cl)c(Cl)c2)cc1N1CCN(C)CC1
inactive

Field: outcome | Entry: O=C(O)c1ccc(OCOCOc2ccc(C(=O)O)c(O)c2)cc1O
inactive

----------
- test: human hepatoma cell viability loss – ATP luminescence, cytotoxicity control for P. falciparum antimalarial project, primary screen (AID 2303);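 note: 0% = DMSO wells and 100% = digitonin-killed cells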
- test_parameters: HepG2 viability, 24-48 h, at 10 µM, hits give high values
inhibition listing for selected molecules.
The reply should contain only the number, in %.

Example molecules with recorded inhibition:
- molecule: "O=C(NC1CCN(Cc2ccccc2O)C1)c1ccc(-c2ccccc2)cc1 (stereo not given)"
  unit_symbol: "%"
  inhibition: -5
- molecule: "N#Cc1ccc(N2CCN(Cc3cccc(-c4ccc(-c5nc6ccc(C(F)(F)F)cc6[nH]5)s4)c3)CC2)nc1"
  unit_symbol: "%"
  inhibition: 31
- molecule: "Cc1cc(NCCc2ccccc2)nc(/N=C(\\N)Nc2cccc(Cl)c2)n1"
  unit_symbol: "%"
  inhibition: 24
- molecule: "O=C(Nc1ccncc1)c1cc(C(=O)Nc2ccncc2)cc([N+](=O)[O-])c1"
  unit_symbol: "%"
  inhibition: 1
- molecule: "COc1ccc2ccc(F)c(CC(=O)N3CCOC(CNCc4cccc(-c5ccc(F)cc5)n4)C3)c2n1 (stereo not given)"
  unit_symbol: "%"
  inhibition: 5
- molecule: "O=S(=O)(Nc1ccc(-c2ccc(CN3CCCC3)cc2)cc1)c1cccc2cccnc12"
  unit_symbol: "%"
  inhibition: 37
- molecule: "O=C(Nc1ccccc1)N(Cc1ccc(-c2ccc(CNCc3ccc4c(c3)OCO4)cc2)cc1)C1CCN(Cc2ccccc2)CC1"
  unit_symbol: "%"
  inhibition: 21
- molecule: "Oc1ccc2nc(NCCCc3ccccc3)nc(NCCc3ccccc3)c2c1"
  unit_symbol: "%"
  inhibition: 31

Reported inhibition, molecule CC(C)C(=O)NC(c1ccc(Cl)cc1)c1ccc2cccnc2c1O (stereo not given) : ____
53

Reported inhibition, molecule O=C1COC2(CN1CC1CCN(Cc3ccc(O)c(Cl)c3)C1)c1ccccc1-c1ccccc12 (stereo not given) : ____
6

----------
- experimental_target: L-lactate dehydrogenase (Plasmodium falciparum (isolate CDC / Honduras)) (UniProt Q27743)
- Sequence (Q27743 whole entry, looked up): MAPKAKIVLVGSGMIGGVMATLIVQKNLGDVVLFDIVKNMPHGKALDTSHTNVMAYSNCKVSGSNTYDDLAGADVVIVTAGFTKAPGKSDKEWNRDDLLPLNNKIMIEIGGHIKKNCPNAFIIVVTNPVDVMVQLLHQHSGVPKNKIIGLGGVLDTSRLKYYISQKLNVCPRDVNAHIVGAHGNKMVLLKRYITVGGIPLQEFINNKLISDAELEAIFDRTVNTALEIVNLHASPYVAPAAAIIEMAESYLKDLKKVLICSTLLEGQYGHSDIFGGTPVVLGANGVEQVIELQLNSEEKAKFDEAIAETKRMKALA
- test: PfLDH activity inhibition – cell lysate, 3D7 strain, counter-screen for P. falciparum growth inhibition project (AID 2304);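 note: 0% = vehicle and 100% = reference inhibitor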
- test_parameters: P. falciparum 3D7 crude extract, LDH APAD/NBT absorbance; at 2 µM; hits give high values
inhibition listing for selected compounds.
The reply should contain only the number, in %.

Example compounds with recorded inhibition:
- compound: "N#Cc1ccc2c(c1)CCN(CCC1CCC(NC(=O)c3cc4cccc(Cl)c4[nH]3)CC1)CC2 (stereo unspecified)"
  inhibition / %: 0
- compound: "NC(N)=NN=Cc1ccccc1OCc1ccccc1Cl"
  inhibition / %: 5
- compound: "NS(=O)(=O)c1cccc(Br)c1"
  inhibition / %: 0

Record CSc1cccc(NC(=O)c2cc3ccccc3oc2=O)c1 : what is its inhibition with L-lactate dehydrogenase (Plasmodium falciparum (isolate CDC / Honduras)) (UniProt Q27743)?
4

Record CC1(C)N=C(N)N=C(N)N1OCCCCOc1ccc(Cl)cc1C1CCCCC1 : what is its inhibition with L-lactate dehydrogenase (Plasmodium falciparum (isolate CDC / Honduras)) (UniProt Q27743)?
2

Record Cc1ncccc1C(=O)Nc1cccc(-c2cccc(-c3nc4c(C)cccc4[nH]3)c2)c1 : what is its inhibition with L-lactate dehydrogenase (Plasmodium falciparum (isolate CDC / Honduras)) (UniProt Q27743)?
4

----------
inhibition listing for selected molecules.
- experimental_target: L-lactate dehydrogenase (Plasmodium falciparum (isolate CDC / Honduras)) (UniProt Q27743)
- test: PfLDH activity inhibition – cell lysate, 3D7 strain, counter-screen for P. falciparum growth inhibition project (AID 2304);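 note: 0% = vehicle and 100% = reference inhibitor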
- test_parameters: P. falciparum 3D7 crude extract, LDH APAD/NBT absorbance; at 2 µM; hits give high values
The reply should contain only the number, in %.

- chemical_string: "Cc1ccc2cc(NC(=O)CCCCCCCON3C(N)=NC(N)=NC34CCCCC4)ccc2n1"
  quantitative_result: 3
- chemical_string: "CCOc1ccc2c(NN=Cc3cc(OC)c(OC)c(OC)c3)cc(C)nc2c1"
  quantitative_result: -4
- chemical_string: "N/C(=N\\c1cccc(Cc2ccc([N+](=O)[O-])cc2)n1)Nc1ccccc1"
  quantitative_result: 4
- chemical_string: "COc1cccc(CN(C(=O)Nc2ccccc2F)[C@H]2C[C@H]3C(=O)Nc4cc(F)ccc4C(=O)N3C2)c1"
  quantitative_result: 3
- chemical_string: "c1cc(CN2CCN(CCN3CCOCC3)CC2)cc(-c2ccc(-c3nc4ccccc4[nH]3)cc2)c1"
  quantitative_result: -8
- chemical_string: "CS(=O)(=O)c1ccc(CNCc2ccc(-c3ccc(-c4nc5ccc(C(F)(F)F)cc5[nH]4)s3)cc2)cc1"
  quantitative_result: -5

Reported inhibition, molecule COc1ccc2nc(C)cc(NN=Cc3ccc([N+](=O)[O-])cc3)c2c1 : ____
-5

Reported inhibition, molecule CC(=O)Nc1ncc(C(=O)Nc2cccc(-c3ccc(-c4nc5ccccc5[nH]4)cc3)c2)s1 : ____
-9

Reported inhibition, molecule c1ccc(CCNc2ncnc3c2[nH]c2ccccc23)cc1 : ____
-1
